Data provenance is ChEMBL document CHEMBL4049406.

Each entry below lists one item and its recorded IC50 value.
TARGET: UniProt Q9HBA0
EXPERIMENTAL PROTOCOL: Antagonist activity at recombinant human TRPV4 expressed in CHOK1 cells assessed as inhibition of 4alphaPDD-induced activation pretreated for 5 mins followed by 4alphaPDD stimulation measured for 5 mins by FLIPR assay
Assay type: cell-based
OUTCOME MEASURE: IC50 (nM)

[[record]]
compound = "Cc1nc(C)c(-c2csc(Nc3ccc(C(=O)N4CCN(c5ncc(C(F)(F)F)cn5)C[C@@H]4C)cn3)n2)s1"
numeric_readout = 0.62

[[record]]
compound = "Cc1nc(C)c(-c2csc(Nc3ccc(C(=O)N4CCN(c5ncc(C(F)(F)F)cn5)CC4CO)cn3)n2)s1 (configuration not stated)"
numeric_readout = 64

[[record]]
compound = "Cc1nc(C)c(-c2csc(Nc3ccc(C(=O)N4C5CCC4CN(c4ncc(F)cn4)C5)cn3)n2)s1"
numeric_readout = 0.31

[[record]]
compound = "Cc1cc(-c2csc(Nc3ccc(C(=O)N4C5CCC4CN(c4ncc(C(F)(F)F)cn4)C5)cn3)n2)n(C)n1"
numeric_readout = 1.3

[[record]]
compound = "Cc1nc(C)c(-c2csc(Nc3ccc(C(=O)N4C5CCC4CN(c4cnc(C(F)(F)F)nc4)C5)cn3)n2)s1"
numeric_readout = 6.3

[[record]]
compound = "Cc1nc(C)c(-c2csc(Nc3ccc(C(=O)N4CCN(c5ncc(C(F)(F)F)cn5)CC4)cn3)n2)s1"
numeric_readout = 6.8

[[record]]
compound = "Cc1nc(C)c(-c2nsc(Nc3ccc(C(=O)N4C5CCC4CN(c4ncc(C(F)(F)F)cn4)C5)cn3)n2)s1"
numeric_readout = 3.7


###

EXPERIMENTAL PROTOCOL: Stability in human liver microsomes assessed as parent compound remaining at 0.5 uM in presence of NADPH after 30 mins by LC/MS/MS analysis
Assay type: ADME, microsome
STUDY CONDITIONS: read-out: Stability
Each entry below lists one item and its recorded remaining at 0.5 h, 0.5 µM value.
OUTCOME MEASURE: remaining at 0.5 h, 0.5 µM (%)

[[record]]
molecule = "Cc1nc(C)c(-c2csc(Nc3ccc(C(=O)N4C5CCC4CN(c4ncc(CO)cn4)C5)cn3)n2)s1"
outcome_measure = "remaining at 0.5 h, 0.5 µM"
unit_of_measurement = "%"
numeric_readout = 61.4

[[record]]
molecule = "Cc1nc(C)c(-c2csc(Nc3ccc(C(=O)N4CCN(c5ncc(C(F)(F)F)cn5)C[C@@H]4C)cn3)n2)s1"
outcome_measure = "remaining at 0.5 h, 0.5 µM"
unit_of_measurement = "%"
numeric_readout = 69.5

[[record]]
molecule = "Cc1nc(C)c(-c2csc(Nc3ccc(C(=O)N4CC5CCC(C4)N5c4ncc(C(F)(F)F)cn4)cn3)n2)s1"
outcome_measure = "remaining at 0.5 h, 0.5 µM"
unit_of_measurement = "%"
numeric_readout = 57.4

[[record]]
molecule = "Cc1nn(C)cc1-c1csc(Nc2ccc(C(=O)N3C4CCC3CN(c3ncc(C(F)(F)F)cn3)C4)cn2)n1"
outcome_measure = "remaining at 0.5 h, 0.5 µM"
unit_of_measurement = "%"
numeric_readout = 89

[[record]]
molecule = "Cc1nc(C)c(-c2csc(Nc3ccc(C(=O)N4CCN(c5ncc(C(F)(F)F)cn5)CC4CO)cn3)n2)s1 (stereo not drawn)"
outcome_measure = "remaining at 0.5 h, 0.5 µM"
unit_of_measurement = "%"
numeric_readout = 82.1

[[record]]
molecule = "Cc1nc(C)c(-c2csc(Nc3ccc(C(=O)N4C5CCC4CN(c4ncc(C#N)cn4)C5)cn3)n2)s1"
outcome_measure = "remaining at 0.5 h, 0.5 µM"
unit_of_measurement = "%"
numeric_readout = 37.7

[[record]]
molecule = "Cc1cc(-c2csc(Nc3ccc(C(=O)N4C5CCC4CN(c4ncc(C(F)(F)F)cn4)C5)cn3)n2)n(C)n1"
outcome_measure = "remaining at 0.5 h, 0.5 µM"
unit_of_measurement = "%"
numeric_readout = 99.7

[[record]]
molecule = "Cc1nc(C(C)O)sc1-c1csc(Nc2ccc(C(=O)N3C4CCC3CN(c3ncc(C(F)(F)F)cn3)C4)cn2)n1 (stereo not drawn)"
outcome_measure = "remaining at 0.5 h, 0.5 µM"
unit_of_measurement = "%"
numeric_readout = 79.9


###

EXPERIMENTAL PROTOCOL: Stability in human liver microsomes assessed as parent compound remaining at 0.5 uM in presence of NADPH after 30 mins by LC/MS/MS analysis
Format: ADME, microsome
STUDY CONDITIONS: read-out: Stability
Field 'label' (enum: Y / N). Set to Y when remaining at 0.5 h, 0.5 µM is strictly under 80%; else N.

[[record]]
compound = "Cc1nc(C)c(-c2csc(Nc3ccc(C(=O)N4C5CCC4CN(c4ncc(Br)cn4)C5)cn3)n2)s1"
category = "Y"

[[record]]
compound = "Cc1nc(C)c(-c2csc(Nc3ccc(C(=O)N4CCN(c5ncc(C(F)(F)F)cn5)[C@@H](C)C4)cn3)n2)s1"
category = "Y"

[[record]]
compound = "Cc1nc(C)c(-c2csc(Nc3ccc(C(=O)N4C5CCC4CN(c4ncc(Cl)cn4)C5)cn3)n2)s1"
category = "Y"

[[record]]
compound = "Cc1nc(C)c(-c2csc(Nc3ccc(C(=O)N4C5CCC4CN(c4ncc(C(N)=O)cn4)C5)cn3)n2)s1"
category = "Y"

[[record]]
compound = "Cc1nc(C)c(-c2csc(Nc3ccc(C(=O)N4CCN(c5ncc(C(F)(F)F)cn5)[C@H](C)C4)cn3)n2)s1"
category = "Y"

[[record]]
compound = "Cc1nc(C)c(-c2csc(Nc3ccc(C(=O)N4CCN(c5ncc(C(F)(F)F)cn5)C[C@H]4C)cn3)n2)s1"
category = "Y"

[[record]]
compound = "Cc1nc(C)c(-c2csc(Nc3ccc(C(=O)N4CCN(c5ncc(C(F)(F)F)cn5)CC4C(F)(F)F)cn3)n2)s1 (stereo not drawn)"
category = "N"

[[record]]
compound = "Cc1nc(C)c(-c2csc(Nc3ccc(C(=O)N4C5CCC4CN(c4ncc(C(F)(F)F)cn4)C5)cn3)n2)s1"
category = "N"


###

TARGET: Transient receptor potential cation channel subfamily V member 4 (Homo sapiens)
Sequence (Q9HBA0 whole entry): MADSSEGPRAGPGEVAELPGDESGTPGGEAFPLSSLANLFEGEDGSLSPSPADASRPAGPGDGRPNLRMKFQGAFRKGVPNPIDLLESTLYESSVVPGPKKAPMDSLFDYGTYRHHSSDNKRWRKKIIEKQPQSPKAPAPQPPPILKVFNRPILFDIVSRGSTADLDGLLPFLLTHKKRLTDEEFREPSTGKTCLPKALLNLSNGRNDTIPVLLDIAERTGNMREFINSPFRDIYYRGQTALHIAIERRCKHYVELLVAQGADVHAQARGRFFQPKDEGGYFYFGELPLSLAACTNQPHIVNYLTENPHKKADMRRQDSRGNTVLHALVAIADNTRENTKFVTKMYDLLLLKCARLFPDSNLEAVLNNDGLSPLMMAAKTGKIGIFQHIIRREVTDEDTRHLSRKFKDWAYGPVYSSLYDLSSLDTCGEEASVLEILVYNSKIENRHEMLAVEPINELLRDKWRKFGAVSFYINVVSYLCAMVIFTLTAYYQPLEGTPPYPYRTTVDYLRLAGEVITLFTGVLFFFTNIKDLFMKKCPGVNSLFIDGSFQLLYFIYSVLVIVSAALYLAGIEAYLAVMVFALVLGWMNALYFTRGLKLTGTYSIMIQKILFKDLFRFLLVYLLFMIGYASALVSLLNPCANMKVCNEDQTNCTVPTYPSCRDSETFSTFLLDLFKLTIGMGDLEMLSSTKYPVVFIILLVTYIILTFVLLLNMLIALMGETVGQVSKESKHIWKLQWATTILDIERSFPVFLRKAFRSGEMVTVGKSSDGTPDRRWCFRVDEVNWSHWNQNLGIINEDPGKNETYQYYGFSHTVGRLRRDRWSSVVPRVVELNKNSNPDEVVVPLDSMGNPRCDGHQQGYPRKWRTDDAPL
EXPERIMENTAL PROTOCOL: Antagonist activity at recombinant human TRPV4 expressed in CHOK1 cells assessed as inhibition of 4alphaPDD-induced activation pretreated for 5 mins followed by 4alphaPDD stimulation measured for 5 mins by FLIPR assay
Type: cell-based
Field 'label' (enum: 1.0 / 0.0). Set to 1.0 when IC50 is strictly under 1 nM; else 0.0.

[[record]]
compound = "Cc1nc(C)c(-c2csc(Nc3ccc(C(=O)N4CCN(c5ncc(C(F)(F)F)cn5)[C@@H](C)C4)cn3)n2)s1"
category = 0.0

[[record]]
compound = "Cc1nc(C)c(-c2csc(Nc3ccc(C(=O)N4C5CCC4CN(c4ccc(C(F)(F)F)cc4)C5)cn3)n2)s1"
category = 0.0

[[record]]
compound = "Cc1nc(C)c(-c2csc(Nc3ccc(C(=O)N4CC5CCC(C4)N5c4ncc(C(F)(F)F)cn4)cn3)n2)s1"
category = 1.0

[[record]]
compound = "Cc1nc(C)c(-c2csc(Nc3ccc(C(=O)N4C5COCC4CN(c4ncc(C(F)(F)F)cn4)C5)cn3)n2)s1"
category = 1.0

[[record]]
compound = "Cc1nc(C)c(-c2csc(Nc3ccc(C(=O)N4C5CCC4CN(c4ncc(C(=O)O)cn4)C5)cn3)n2)s1"
category = 0.0

[[record]]
compound = "Cc1nc(C)c(-c2csc(Nc3ccc(C(=O)N4C5CCC4CN(c4ccc(C(F)(F)F)cn4)C5)cn3)n2)s1"
category = 0.0

[[record]]
compound = "Cc1nc(C)c(-c2csc(Nc3ccc(C(=O)N4C5CCC4CN(c4ncc(C#N)cn4)C5)cn3)n2)s1"
category = 1.0

